Data provenance is ChEMBL document CHEMBL5321214.

molecular target: Amyloid-beta precursor protein (Homo sapiens); experiment: Anti-oligomeric activity against Abeta42 (unknown origin) assessed as depletion of the formation of toxic HMW Abeta42 oligomers at 5 uM measured at day 7 from sample solubilization by capillary electrophoresis assay; conditions: time 7.0 day
Calls of active or inactive are those of the source. The calls are words filed in the database; no cut-off is given here.
Respond using exactly one of the listed classes: active, inactive

Task: Write down the call the test reported for this compound. Item: CCOC(=O)Cn1cc(C/C(C(=O)/C=C/c2ccc(OC)cc2)=C(O)\C=C\c2ccc(OC)cc2)nn1
Output: active

Task: Write down the call the test reported for this compound. Item: CCCCn1cc(C/C(C(=O)/C=C/c2ccc(OC)cc2)=C(O)\C=C\c2ccc(OC)cc2)nn1
Output: active

Task: Write down the call the test reported for this compound. Item: CCOC(=O)C/C(C(=O)/C=C/c1ccc(OC)cc1)=C(O)\C=C\c1ccc(OC)cc1
Output: inactive

Task: Write down the call the test reported for this compound. Item: COc1cc(/C=C/C(=O)CC(=O)/C=C/c2ccc(O)c(OC)c2)ccc1O
Output: active

Task: Write down the call the test reported for this compound. Item: COc1ccc(/C=C/C(=O)/C=C(O)/C=C/c2ccc(OC)cc2)cc1
Output: inactive

* * *

tested on: SH-SY5Y; assay: Antioxidant activity in human SH-SY5Y cells assessed as increase in intracellular GSH level at 2.5 uM incubated for 24 hrs by […] fluorescence analysis; assay type: functional
Active and inactive are the calls of the source. No cut-off for these calls is given here.
experimentalReadout: Activity

CCOC(=O)Cn1cc(C/C(C(=O)/C=C/c2ccc(OC)cc2)=C(O)\C=C\c2ccc(OC)cc2)nn1 :: Active
CCOC(=O)C/C(C(=O)/C=C/c1ccc(OC)cc1)=C(O)\C=C\c1ccc(OC)cc1 :: Active
CCCCn1cc(C/C(C(=O)/C=C/c2ccc(OC)cc2)=C(O)\C=C\c2ccc(OC)cc2)nn1 :: 40%
